- Measured Target: NAMPT (Homo sapiens, UniProt P43490)
- Sequence (P43490 whole entry): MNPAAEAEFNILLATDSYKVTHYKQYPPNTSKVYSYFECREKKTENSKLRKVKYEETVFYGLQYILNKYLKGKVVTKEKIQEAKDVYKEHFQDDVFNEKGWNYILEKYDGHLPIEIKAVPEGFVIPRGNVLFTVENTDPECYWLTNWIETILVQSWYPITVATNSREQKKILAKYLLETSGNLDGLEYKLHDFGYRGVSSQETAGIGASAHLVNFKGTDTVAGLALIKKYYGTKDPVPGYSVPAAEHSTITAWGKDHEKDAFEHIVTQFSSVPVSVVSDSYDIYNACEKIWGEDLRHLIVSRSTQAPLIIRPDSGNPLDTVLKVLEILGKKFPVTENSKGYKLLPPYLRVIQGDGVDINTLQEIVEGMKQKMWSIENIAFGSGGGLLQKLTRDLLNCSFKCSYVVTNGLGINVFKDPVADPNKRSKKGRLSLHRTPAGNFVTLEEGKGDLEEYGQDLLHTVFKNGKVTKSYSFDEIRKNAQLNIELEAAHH
- Measurement Protocol: Time-Resolved Fluorescence Resonance Energy Transfer (TR-FRET) Binding Assay of NAMPT
- Stated Conditions: 6.8 nM NAMPT, 200 nM probe, equilibrated 3 hours, no substrates
Listed molecules paired with reported pIC50
pIC50 is defined as minus the log10 of a concentration measured in mol/L.

These solved cases illustrate the format of a correct answer.
Molecule: CC(C)(O)C(=O)N1CCC(Oc2ccc(NC(=O)N3CC(c4cccnc4)C3)cc2)CC1 [Example 7]
Measured Target: NAMPT (Homo sapiens, UniProt P43490)
pIC50: 7.24
//
Molecule: O=C(Nc1ccc(C2CCN(C(=O)[C@H]3CCCO3)C2)cc1)N1CC(c2cccnc2)C1 (some centres unmarked) [Example 67]
Measured Target: NAMPT (Homo sapiens, UniProt P43490)
pIC50: 6.76
//
Molecule: CC(C)C(C)C(=O)N1CC(Oc2ccc(NC(=O)N3CC(c4cccnc4)C3)cc2)C1 (centres unmarked) [Example 123]
Measured Target: NAMPT (Homo sapiens, UniProt P43490)
pIC50: 7.83

stdin: Find the measured pIC50: item CC(C)(C)CC(=O)N1CCC(Oc2ccc(NC(=O)N3CC(c4cccnc4)C3)cc2)CC1 [Example 45] , target or system NAMPT (Homo sapiens, UniProt P43490).
stdout: 7.46

stdin: Try this molecule too: O=C(Nc1ccc(C2CN(C(=O)C3CCCCC3)C2)cc1)N1CC(c2cccnc2)C1 [Example 211]
stdout: 7.25

stdin: Try this molecule too: O=C(CC1C[C@@H]2CC[C@H]1C2)N1CCC(c2ccc(NC(=O)N3CC(c4cccnc4)C3)cc2)C1 (some centres unmarked) [Example 260]
stdout: 7.42

stdin: Try this molecule too: O=C(CC1CCCCC1)N1CCC(c2ccc(NC(=O)N3CC(c4cccnc4)C3)cc2)CC1 [Example 178]
stdout: 7.86
